Each entry below carries its reported Lung Cmax.
experiment: Mouse oral PK and tissue distribution, fed state; format: in vivo; conditions: single oral dose 10 mg/kg, fed mice
All answers are understood in ng/g, so give the number only.

COMPOUND	Lung Cmax [ng/g]
CCCCCCCCCCCCCCCCOCCCOP(=O)(O)CO[C@H](C)Cn1cnc2c(N)ncnc21 [TXL, hexadecyloxypropyl (HDP)-TFV, reference compound]	583
C[C@H](Cn1cnc2c(N)ncnc21)OCP(=O)(O)OCCCOCCCCCCCCCCCCCCCC(F)(F)F [15a]	729

Below: the item to evaluate.
stdin: Provide only the value of recorded Lung Cmax for C[C@H](Cn1cnc2c(N)ncnc21)OCP(=O)(O)OCCCOCCCCCCCCCCCCCCCCCC(F)(F)F [15b]
stdout: 585

---

test: Mouse oral PK and tissue distribution, fed state; format: in vivo; conditions: male, C57BL/6, mouse, in vivo, po, 10 mg/kg, single oral dose 10 mg/kg, fed mice; read-out: Plasma Tmax
Each entry below carries its reported Tmax.
All answers are understood in h, so give the number only.

MOLECULE	UNITS	Tmax
CCCCCCCCCCCCCCCCOCCCOP(=O)(O)CO[C@H](C)Cn1cnc2c(N)ncnc21 [TXL, hexadecyloxypropyl (HDP)-TFV, reference compound]	h	8

Below: the item to evaluate.
stdin: Provide only the value of recorded Tmax for C[C@H](Cn1cnc2c(N)ncnc21)OCP(=O)(O)OCCCOCCCCCCCCCCCCCCCC(F)(F)F [15a]
stdout: 2

---

assay: Mouse oral PK and tissue distribution, fed state; assay type: in vivo; conditions: male, C57BL/6, mouse, plasma; single oral dose 10 mg/kg, fed mice; read-out: Plasma AUC0-18h
REPORTED ENDPOINT: AUC(0-t) (ng·h/mL)
All answers are understood in ng·h/mL, so give the number only.

Recorded results for 2 compounds are shown here.
COMPOUND	OBS VALUE
C[C@H](Cn1cnc2c(N)ncnc21)OCP(=O)(O)OC[C@H](COCCCCCCCCCCCCCCCCCC(F)(F)F)OCc1ccccc1 [21b]	4530
C[C@H](Cn1cnc2c(N)ncnc21)OCP(=O)(O)OC[C@H](COCCCCCCCCCCCCCCCC(F)(F)F)OCc1ccccc1 [21a]	4710

Below: the item to evaluate.
stdin: Provide only the value of recorded AUC(0-t) for C[C@H](Cn1cnc2c(N)ncnc21)OCP(=O)(O)OCCCOCCCCCCCCCCCCCCCCCC(F)(F)F [15b]
stdout: 1010

---

assay: Metabolic stability in human liver microsomes; type: in vitro ADME; conditions: pH 7.4, read-out: Metabolic Stability HLM t1/2
Each entry below carries its reported half-life at 3 µM.

stdin: Provide only the value of recorded half-life at 3 µM for C[C@H](Cn1cnc2c(N)ncnc21)OCP(=O)(O)OCCCOCCCCCCCCCCCCCCCC(F)(F)F [15a]
stdout: > 2 h

stdin: Provide only the value of recorded half-life at 3 µM for CCCCCCCCCCCCCCCCCCOC[C@H](COP(=O)(O)CO[C@H](C)Cn1cnc2c(N)ncnc21)OCc1ccccc1 [8d]
stdout: > 2 h

stdin: Provide only the value of recorded half-life at 3 µM for CCCCCCCCCCCCCCCCOC[C@H](COP(=O)(O)CO[C@H](C)Cn1cnc2c(N)ncnc21)OCc1ccccc1 [8c]
stdout: > 2 h

stdin: Provide only the value of recorded half-life at 3 µM for CCCCCCCCCCCCCCCCCCOC[C@@H](COP(=O)(O)CO[C@H](C)Cn1cnc2c(N)ncnc21)OCc1ccccc1 [8b]
stdout: > 2 h

stdin: Provide only the value of recorded half-life at 3 µM for C[C@H](Cn1cnc2c(N)ncnc21)OCP(=O)(O)OC[C@H](COCCCCCCCCCCCCCCCC(F)(F)F)OCc1ccccc1 [21a]
stdout: > 2 h

---

Each entry below carries its reported half-life at 3 µM.
assay: Metabolic stability in human liver microsomes; type: in vitro ADME; settings: pH 7.4, read-out: Metabolic Stability HLM t1/2

Recorded results for 2 compounds are shown here.
COMPOUND	REPORTED ENDPOINT	OBS VALUE
C[C@H](Cn1cnc2c(N)ncnc21)OCP(=O)(O)OC[C@H](COCCCCCCCCCCCCCCCCCC(F)(F)F)OCc1ccccc1 [21b]	half-life at 3 µM	> 2 h
CCCCCCCCCCCCCCCCOC[C@@H](COP(=O)(O)CO[C@H](C)Cn1cnc2c(N)ncnc21)OCc1ccccc1	half-life at 3 µM	> 2 h

Below: the item to evaluate.
stdin: Provide only the value of recorded half-life at 3 µM for C[C@H](Cn1cnc2c(N)ncnc21)OCP(=O)(O)OCCCOCCCCCCCCCCCCCCCCCC(F)(F)F [15b]
stdout: > 2 h
